- test-system: JAK2 (Homo sapiens (Human))
- Sequence (O60674 849-1124): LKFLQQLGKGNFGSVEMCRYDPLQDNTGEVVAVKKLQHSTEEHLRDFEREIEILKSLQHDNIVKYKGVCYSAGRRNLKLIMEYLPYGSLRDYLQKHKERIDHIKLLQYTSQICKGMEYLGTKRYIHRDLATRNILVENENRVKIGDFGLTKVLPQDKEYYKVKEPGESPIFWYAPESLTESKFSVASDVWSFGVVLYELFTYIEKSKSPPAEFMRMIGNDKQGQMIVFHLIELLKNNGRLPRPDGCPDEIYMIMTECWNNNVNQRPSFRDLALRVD
- experimental-details: Jak Biochemical HTRF Assay (JAK2)
- test-parameters: recombinant GST-tagged catalytic domain, [ATP] 8.5 μM; given as range class
// IC50 lookup, one value per entry
measured-metric: IC50

> print(dat)
                                    molecule      measured
 1   CCOC(=O)c1c[nH]c2ncnc(-c3cncc(CO)c3)c12      > 500 nM
 2    CCOC(=O)c1c[nH]c2ncnc(-c3ccc(F)cc3)c12  10 to 500 nM
 3  c1ccc(Oc2ccccc2-c2c[nH]c3ncnc(-c4ccccc4)c23)cc1      > 500 nM
 4  CCOC(=O)c1c[nH]c2ncnc(-c3cccc(C#N)c3)c12  10 to 500 nM
 5  CCOC(=O)c1c[nH]c2ncnc(-c3ccc4nnn(C)c4c3)c12      > 500 nM
 6  CCOC(=O)c1c[nH]c2ncnc(-c3cccc(NC(=O)/C=C/c4cccs4)c3)c12      > 500 nM
 7  CCOC(=O)c1c[nH]c2ncnc(C3=CCN(C(=O)OC(C)(C)C)CC3)c12  10 to 500 nM
 8  CCOC(=O)c1c[nH]c2ncnc(C3=CCC(C#N)CC3)c12 (stereo not drawn)  10 to 500 nM
 9  CCOC(=O)c1c[nH]c2ncnc(-c3cccc(NC(=O)NC#N)c3)c12  10 to 500 nM
10  CCOC(=O)c1c[nH]c2ncnc(-c3cccc(NC(=O)C4=CCCCC4)c3)c12      > 500 nM
11   CCOC(=O)c1c[nH]c2ncnc(-c3cccc(OC)c3)c12  10 to 500 nM
12  CCOC(=O)c1c[nH]c2ncnc(-c3ccc(COC)c(N)c3)c12      > 500 nM
13  CCOC(=O)c1c[nH]c2ncnc(-c3cccc(NC(=O)C4=COCC4)c3)c12      > 500 nM
14  CC/C=C(\C)C(=O)Nc1cccc(-c2ncnc3[nH]cc(C(=O)OCC)c23)c1      > 500 nM
15  CCOC(=O)c1c[nH]c2ncnc(-c3cnn4c3CCCC4)c12      > 500 nM
16  c1ccc(Oc2cccc(-c3c[nH]c4ncnc(-c5ccccc5)c34)c2)cc1      > 500 nM
17     CCOC(=O)c1c[nH]c2ncnc(-c3ccccc3Cl)c12      > 500 nM
18  CCOC(=O)c1c[nH]c2ncnc(-c3cccc(-c4nc(C#N)ns4)c3)c12      > 500 nM

----------
- test-system: UniProt O60674
- experimental-details: Jak Biochemical HTRF Assay (JAK2)
- test-parameters: recombinant GST-tagged catalytic domain, [ATP] 8.5 μM; given as range class
pIC50: −log10 of the molar value.
measured-metric: pIC50

> print(dat)
                                   molecule  measured
1  CCOC(=O)c1c[nH]c2ncnc(-c3cccc(NC(=O)/C=C/C(F)(F)F)c3)c12 [Example 5-42]    < 6.30
2  CCOC(=O)c1c[nH]c2ncnc(-c3ccc(C#N)cc3)c12 [Example 1-10]    < 6.30
3  C=C(C)C(=O)Nc1cccc(-c2ncnc3[nH]cc(-c4nnc(C)s4)c23)c1 [Example 27]    < 6.30
4  CCOC(=O)c1c[nH]c2ncnc(-c3cnn(CCOC)c3)c12 [Example 1-99]    < 6.30
5  CCOC(=O)c1c[nH]c2ncnc(-c3coc4ccccc34)c12 [Example 1-63]    < 6.30

The measured values listed here are drawn from patent US8993756B2.
